test system: Saccharomyces cerevisiae; experiment: protein stability index of tFT-peptide fusion (C-terminal peptide) (PSI (0-1 scale)); higher = more stable (slower turnover); conditions: genetic background: wild type; temperature: 30 C;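 further: PSI is a weighted mean of sequencing reads over stability bins, variants kept only with over 10 reads, mCherry proximal and sfGFP distal, peptide attached via GGGS linker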
property: protein stability index
I'd appreciate a reply containing only the number, no unit.

Here is how some sequences turned out for protein stability index.
Short answer for PPPRPLPVLFLP : protein stability index was 0.611

Short answer for LLIPPLPSLAPP : protein stability index was 0.759

Short answer for FRLPMIRVCWSL : protein stability index was 0.569

Short answer for ASENESDDEKLF : protein stability index was 0.7

Short answer for AKGVYFPIKGIY : protein stability index was 0.644

New cases:
Short answer for RKRPTQAMIFNI : protein stability index was 0.557

Short answer for FFCILCAHWFPL : protein stability index was 0.589

Short answer for RVQLPSRITQKA : protein stability index was 0.596

----------
system: Saccharomyces cerevisiae; assay: protein stability index of tFT-peptide fusion (C-terminal peptide) (PSI (0-1 scale)); higher = more stable (slower turnover); conditions: genetic background: wild type; temperature: 37 C
Respond with met for protein stability index values of 0.4 and above, not met for values below.

Answered cases to consult:
Would you say KLSLRYLLVSLI shows protein stability index at minimum 0.4? not met

Would you say GVLLLGSYQWVG shows protein stability index at minimum 0.4? not met

New cases:
Would you say YLAGPLARLRKF shows protein stability index at minimum 0.4? met

Would you say VPASWLRMLAFC shows protein stability index at minimum 0.4? not met

Would you say PRSFFYIQFVFA shows protein stability index at minimum 0.4? not met

Would you say VFFLAFYFYRCF shows protein stability index at minimum 0.4? not met

----------
system: Saccharomyces cerevisiae; test: protein stability index of tFT-peptide fusion (C-terminal peptide) (PSI (0-1 scale)); higher = more stable (slower turnover); conditions: genetic background: cdc34-1; temperature: 37 C
property: protein stability index
I'd appreciate a reply containing only the number, no unit.

Short answer for GGVCVRMECWMG : protein stability index was 0.57

New cases:
Short answer for VTTTWTWTVRLC : protein stability index was 0.538

Short answer for LLGHLFTMLVIY : protein stability index was 0.211

Short answer for VPASWLRMLAFC : protein stability index was 0.197

Short answer for TIKGRLNVRKIE : protein stability index was 0.653

Short answer for SPWSIHLILLQV : protein stability index was 0.209

Short answer for AWGSWTLCVAVH : protein stability index was 0.0257

Short answer for GFFFFHGLCFFV : protein stability index was 0.448

Short answer for KRNLLYNIIVWI : protein stability index was 0.404

Short answer for LFSSFFVFRLLV : protein stability index was 0.322

Short answer for SQKKKIKKYKET : protein stability index was 0.574

Short answer for WGLGWRGALVAV : protein stability index was 0.417

Short answer for GPNWCSVCQGVG : protein stability index was 0.421

Short answer for CFWLLSSLLLFL : protein stability index was 0.462

Short answer for LFWWCMVFISLI : protein stability index was 0.307

Short answer for PFFHVFLLLLLI : protein stability index was 0.153

Short answer for NFSALECKVQLT : protein stability index was 0.747

Short answer for DDESLVGRWRKV : protein stability index was 0.647

Short answer for TFVGWIVWLCGS : protein stability index was 0.537

Short answer for NFTDMGRSLYIN : protein stability index was 0.592

Short answer for LFVPVFSFGFVC : protein stability index was 0.485

Short answer for YNTRLCTFSCML : protein stability index was 0.772

Short answer for SLPVSPLVRLLA : protein stability index was 0.563

Short answer for GGLVVYVWGRWS : protein stability index was 0.526
